target: WIL-FL (Homo sapiens); assay: Unlabeled LC Protease Sensitivity Assay (proteinase K); format: biochemical; conditions: small molecule 10 μM, WIL-FL 5 μM, proteinase K 50 nM, 2 hours at 37° C.
property.measured: Protection (fold protection of LC from protease)

• CCN(CC)c1ccc2c(C)c(CCNC(=O)NCc3cccc(Cl)n3)c(=O)oc2c1 [Compound 282] = B (3 ≤ B < 0.6)
• CCN(CC)c1ccc2c(C)c(CCNC(=O)NCc3ccc(=O)[nH]c3)c(=O)oc2c1 [Compound 286] = A (A < 0.3))
• CCN(CC)c1ccc2c(C)c(CCN3C(=O)NC4(CCN(C(=O)c5ccncn5)CC4)C3=O)c(=O)oc2c1 [Compound 208] = B (3 ≤ B < 0.6)
• CCN(CC)c1ccc2c(C)c(CCOC(=O)NCc3ccn[nH]3)c(=O)oc2c1 [Compound 92] = B (3 ≤ B < 0.6)
• CCN(CCCc1ccccc1)c1ccc2c(C)cc(=O)oc2c1 [Compound 31] = A (A < 0.3))
• CCN(CC)c1ccc2c(C)c(CCN3C(=O)NC4(CCN(C(=O)c5ccc(C(N)=O)cc5)CC4)C3=O)c(=O)oc2c1 [Compound 198] = B (3 ≤ B < 0.6)

Protection (fold protection of LC from protease) for CCN(CC)c1ccc2c(C)c(CCOC(=O)NCCc3ccncc3)c(=O)oc2c1 [Compound 84] is A (A < 0.3))
